target: Trypsin (Bos taurus, UniProt P00760); construct: Trypsin, from bovine pancreas; from tissue; host or cells: bovine pancreas; assay: Trypsin inhibition, fluorogenic substrate Z-L-arginine 4-methyl-7-coumarinylamide; type: biochemical, bovine; settings: Example 3; bile salt 25 mg/ml; room temperature, up to 30 minutes; FIG. 5
Sequence (P00760 24-246): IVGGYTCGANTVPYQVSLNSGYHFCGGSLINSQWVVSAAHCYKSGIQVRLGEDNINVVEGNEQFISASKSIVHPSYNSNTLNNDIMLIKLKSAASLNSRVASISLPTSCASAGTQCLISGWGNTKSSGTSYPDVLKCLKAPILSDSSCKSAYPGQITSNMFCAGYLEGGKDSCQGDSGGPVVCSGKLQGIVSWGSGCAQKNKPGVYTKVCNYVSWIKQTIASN
Measurement Type: Inhibition of trypsin activity over time

[[record]]
compound = "C[C@H](CCC(=O)NCCS(=O)(=O)O)[C@H]1CC[C@H]2[C@@H]3[C@H](O)C[C@@H]4C[C@H](O)CC[C@]4(C)[C@H]3C[C@H](O)[C@]12C [taurocholate, taurocholic acid]"
measurement_type = "Inhibition of trypsin activity over time"
obs_value = "do not inhibit trypsin"

[[record]]
compound = "C[C@H](CCC(=O)O)[C@H]1CC[C@H]2[C@@H]3[C@H](O)C[C@@H]4C[C@H](O)CC[C@]4(C)[C@H]3C[C@H](O)[C@]12C [cholate, cholic acid]"
measurement_type = "Inhibition of trypsin activity over time"
obs_value = "do not inhibit trypsin"

[[record]]
compound = "C[C@H](CCC(=O)NCCS(=O)(=O)O)[C@H]1CC[C@H]2[C@@H]3CC[C@@H]4C[C@H](O)CC[C@]4(C)[C@H]3C[C@H](O)[C@]12C [taurodeoxycholate, taurodeoxycholic acid]"
measurement_type = "Inhibition of trypsin activity over time"
obs_value = "do not inhibit trypsin"

